Values compiled from ChEMBL document CHEMBL1157539.

Task for the reader: assign each of the following compounds its reported Inhibition.
Test system: HepG2
Assay: GSK_TCMDC: Percent inhibition of human HepG2 cell line. Test compounds present at 10uM.
Type: functional
One number for each entry, in %.

Give measured Inhibition for every item shown.
1. CC(C)(C)CCOC(=O)N1CCc2c(cc(O)c(O)c2Cl)C(c2ccc(O)cc2)C1 (stereo not given)
2. Cc1cnc(-c2ccc(NC(=O)N3CCc4cc5nccc(N6CCN7CCC[C@H]7C6)c5cc43)c3ccccc23)o1.Cl
3. FC(F)(F)c1ccc2[nH]c(-c3cccc(-c4ccc(CNCC5CCCO5)cc4)c3)nc2c1.O=C(O)C(F)(F)F (stereo not given)
4. O=C(Nc1ccsc1)Nc1cccc(-c2cccc(-c3nc4cc(F)ccc4[nH]3)c2)c1
5. COc1ccccc1C1CCN(CCN2CCC(NC(=O)c3ccc(-c4ccc(C#N)cc4)cc3)CC2)CC1
6. N=C(N)NC(=O)Nc1cc(Br)c(Br)c(Br)c1
7. O=C(O)C(F)(F)F.c1ccc(CCNCc2cccc(-c3ccc(CNc4ccc5ncccc5c4)cc3)c2)cc1

1. 2
2. 12
3. 29
4. 46
5. 31
6. 0
7. 43

Give measured Inhibition for every item shown.
1. N#Cc1ccc(-c2ccc(C(=O)NCCCCN3CC=C(c4ccc5c(c4OCC4CC4)CCCC5)CC3)cc2)cc1
2. CC(C)(C)c1ccc(CNC(=O)c2cc(CNC3CCC(N)CC3)ccc2O)cc1 (stereo not given)
3. Cc1cc(C(F)(F)F)n2nc(C(=O)N(C)Cc3cncn3Cc3ccc(F)cc3)cc2n1

22
1
0

Give measured Inhibition for every item shown.
1. Fc1cccc(Nc2nc(NCc3ccc(Cl)c(Cl)c3)nc(Nc3cccc(F)c3)n2)c1
2. N=C(N)NN=CC(=O)Nc1cc([N+](=O)[O-])cc([N+](=O)[O-])c1.O=S(=O)(O)O
3. C=CCOC(=O)N1CCC(CNCc2ccc(-c3ccc(-c4nc5cc(C(F)(F)F)ccc5[nH]4)cc3)cc2)C1.O=C(O)C(F)(F)F (stereo not given)
4. CNC(=O)c1cnc(Nc2ccc(N3CCN(C)CC3)cc2)nc1Nc1ccccc1OC.O=C(O)C(F)(F)F
5. CN(CCCNc1ccc(C(=O)Nc2ccc(C(F)(F)F)cc2)cc1[N+](=O)[O-])Cc1ccccc1

[0, 0, 44, 8, 25]

* * *

Task for the reader: assign each of the following molecules its reported Inhibition.
Test system: Plasmodium falciparum
Experiment: GSK_TCMDC: Inhibition of Plasmodium falciparum 3D7 in whole red blood cells, using parasite LDH activity as an index of growth. Test compounds present at 2uM
Format: functional
Give bare numbers, in %.

These recorded examples may help you get a feel for the data.
* Cc1noc(-c2ccc(N3CCC(C(=O)N4CCN(C(C)C)CC4)CC3)cc2)n1.Cl | 95
* CCCC(=O)Nc1ccc(OCCCN(Cc2ccccc2C(F)(F)F)c2ccc(C#N)c(C(F)(F)F)c2)cc1 | 89
* COc1ccc(CN2CCC(CN3CC4(OC3=O)c3ccccc3-c3ccccc34)C2)c(O)c1 (stereo not given) | 100
* CCc1ccc(CN2CCC(NC(=O)c3ccc(-c4ccc(N(C)C)cc4)s3)CC2)cc1.O=C(O)C(F)(F)F | 84

Please find the next molecule below.
Enter reported Inhibition observed with Plasmodium falciparum for `CCOC(=O)CCCOc1c(OC)cc(Cc2cnc(N)nc2N)cc1OC` 96
